Assay: Blood stability, rat
Format: in vitro ADME
Conditions: plasma, n=3

{"columns": ["MOLECULE SMILES", "remaining at 1 μmol/L [%]"],
 "data": [
  ["CC(=O)c1ccc(C(=O)Nc2cccc(NS(=O)(=O)c3ccccc3)c2)o1", 46.8]
]}

All figures here come from paper PMC12024912.
